Property: IC50; scope: individual compounds
- Experimental System: TBPS binding
- Assay Text: Steroid inhibition of TBPS binding
- Test Conditions: Table V-2; read-out: TBPS IC50

structure=CC(=O)[C@H]1CC[C@H]2[C@@H]3CC[C@H]4C[C@](C)(O)CC[C@]4(C)[C@H]3CCC[C@]12C measured_result="100 to 1000 nM"

Note: attention shifts to another entry.
Lookup: Report value only: IC50, TBPS binding, C[C@@]1(O)CC[C@@]2(C)[C@@H](CC[C@@H]3[C@@H]2CCC[C@]2(C)[C@@H](C(=O)Cn4cc(C#N)cn4)CC[C@@H]32)C1
Found: 100 to 1000 nM
